Target: T1, Tah1 (TPR-containing protein associated with Hsp90) (S. cerevisiae, UniProt P25638 1-111)
T1 sequence: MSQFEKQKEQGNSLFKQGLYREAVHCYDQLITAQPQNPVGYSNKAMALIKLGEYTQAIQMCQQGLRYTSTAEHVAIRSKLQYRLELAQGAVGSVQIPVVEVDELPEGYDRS
Experiment: ITC
Consider the following binders; for each one, report its stoichiometry N.
One number for each entry.

Guide cases for stoichiometry N, answers given:
>  <binder>
EDASRMEEVD [EDASRMEEVD decapeptide (C-terminal end of human Hsp90β)]

>  <meas-value>
0.81

$$$$
>  <binder>
AEGPTVEEVD [AEGPTVEEVD decapeptide (C-terminal end of Ssa1, wild-type sequence)]

>  <meas-value>
1.2

$$$$
>  <binder>
TEMEEVD [TEMEEVD heptapeptide (C-terminal end of yeast Hsp90)]

>  <meas-value>
1.2

$$$$
>  <binder>
MEEVD [MEEVD pentapeptide (C-terminal end of yeast Hsp90)]

>  <meas-value>
1.1

$$$$

Hello, I would appreciate it if you could give stoichiometry N for each entry below.
1. PTVEEVD [PTVEEVD heptapeptide (C-terminal end of Ssa1)]
2. DDTSRMEEVD [DDTSRMEEVD decapeptide (C-terminal end of human Hsp90α)]

Reply:
1: 1; 2: 1.1

The measurements presented in this section are drawn from paper PMC2865030.
